system: P. falciparum HB3 in RBCs, SYBR Green DNA fluorescence; experiment: growth inhibition of P. falciparum HB3, dose response, HB3 strain, red blood cells, SYBR Green, cherry-picked (AID 652041);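 further: parasites exposed to compound for 72 hours before the DNA read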
Outcome Measure: AC35

Asked: Hello, please tell me recorded AC35 for this one: CC(NC(=S)NC1CCC(C(C)(C)C)CC1)c1ccccc1 (configuration not stated)
Given back: 8.88 µM

Asked: Complete the entry with AC35 for Cc1cccc(Oc2nc(-c3ccccn3)nc3ccccc23)c1
Given back: 6.06 µM

Asked: Let me know recorded AC35 for O=C(NC(=S)N(CCc1ccccc1)CCc1ccccc1)c1ccco1 , thanks.
Given back: 13.3 µM

Asked: Tell me measured AC35 for CN(Cc1ccc(Cl)s1)C(=O)CCl please.
Given back: 5.21 µM

Asked: Read off the recorded AC35 for Oc1c(I)cc(Cl)c2cccnc12
Given back: 1.67 µM

Asked: For the compound COc1ccc(Sc2nc(-c3ccccn3)ncc2OC)cc1 , give its reported AC35.
Given back: 3.53 µM

Asked: Quickly give me recorded AC35 for CCCCCCSc1ccc(-c2nc3ccccn3c2NCCCC)cc1
Given back: 6.94 µM

---

system: P. falciparum HB3 in RBCs, SYBR Green DNA fluorescence; assay: growth inhibition of P. falciparum HB3, dose response, HB3 strain, red blood cells, SYBR Green, cherry-picked (AID 652041);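 further: parasites exposed to compound for 72 hours before the DNA read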
Listing of entries alongside the reported AC35.

Molecule	Assay System	AC35
CCCCCCCn1c(=O)c(C(=O)OC)c(N)c2ccccc21	P. falciparum HB3 in RBCs, SYBR Green DNA fluorescence	4.22 µM

Asked: Give AC35 for COc1cccc(/C=N/NC(=O)c2nc(-c3ccccc3)cc(-c3ccccc3)n2)c1O
Given back: 7.16 µM

Asked: Return value of AC35 for input Cc1ccc(NC(=O)CN(C)C(=O)c2cccnc2Nc2cccc(C(F)(F)F)c2)cc1 , no commentary.
Given back: 10.5 µM

Asked: Report measured AC35; entry is COc1ccc2[nH]c(=O)c(CN(Cc3cccnc3)C(=O)Nc3ccccc3)cc2c1
Given back: 15.7 µM

Asked: Give reported AC35 value for CCCCC(CC)c1nnc(NC(=O)c2cccs2)s1 (stereo not given)
Given back: 37.3 µM

---

system: P. falciparum HB3 in RBCs, SYBR Green DNA fluorescence; experiment: growth inhibition of P. falciparum HB3, dose response, HB3 strain, red blood cells, SYBR Green, cherry-picked (AID 652041);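 further: parasites exposed to compound for 72 hours before the DNA read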
Recorded AC35 for the following molecules

Molecule	Measured Result
Cc1ccc(NS(=O)(=O)c2ccc(N3CCN(c4ccc(O)cc4)CC3)c([N+](=O)[O-])c2)c(C)c1	10.4 µM

Asked: For COC(=O)COC(=O)c1ccccc1NC(=O)c1ccccc1 , write its AC35.
Given back: 25.8 µM

Asked: Dear colleague, please send me the reported AC35 for O=S(=O)(c1ccc(Cl)cc1)N1CCC2(CC1)OCCN2S(=O)(=O)c1cccs1 when you can.
Given back: 20 µM

Asked: State, in one line, measured AC35 of CN1CCN(C(=O)c2cc(COc3ccc(F)cc3Cl)on2)CC1c1ccccc1 (stereo unspecified)
Given back: 33.5 µM

Asked: Give the reported AC35 for this molecule. CC1=CC(C)(C)N(S(=O)(=O)c2ccc(C)cc2)c2ccc(C)cc21
Given back: 18.4 µM

Asked: Tell me measured AC35 for CCCCCCC(Cl)(Cn1ccnc1)c1ccccc1 (stereo unspecified) please.
Given back: 3.48 µM

Asked: Give the measured AC35 for Cc1cc(C)c(C(=O)CC(=O)c2cccnc2)c(C)c1
Given back: 8.29 µM

Asked: Report AC35, nothing else, for this molecule: Cc1c(C2(O)CCCCC2)[nH]c2ccc(C(F)(F)F)cc12
Given back: 17.3 µM
